Here, each record is paired with measured cytotoxicity at 10 µM data.
experiment: Toxicity liver stage against HepG2, at 10uM; format: cell-based; set-up: test concentration 10 uM, cell line HepG2-A16-CD81EGFP; details: human, HepG2-A16-CD81EGFP cells; read-out: INHIBITION
observation.type: cytotoxicity at 10 µM (%)

- compound: "COc1c(C)cnc(CN(C)C2CCN(C3CCOCC3)CC2)c1C"
  result: -17.7
- compound: "CC(C)n1nc2c(cc1=O)CN(CC(=O)N(C)c1nccs1)CC2"
  result: -9.94
- compound: "Cn1cc(C2CCCN2C(=O)CCn2c(=O)oc3ccccc32)cn1 (stereo unspecified)"
  result: 4.91
- compound: "CC(C)CC(=O)N1Cc2ccccc2CC1C(=O)Nc1nncs1 (stereo unspecified)"
  result: -154
- compound: "Cc1nc(C)n(C2CCCN(C(=O)COCc3ccccc3)C2)n1 (stereo unspecified)"
  result: -11
- compound: "Cc1cn2c(n1)C(CNCc1cnn3ccccc13)CCC2 (stereo unspecified)"
  result: 1.78
